Catalogue of AUC(0-t) values
- TEST_METHOD_NOTES: Pharmacokinetic test in mice (IV and PO)
- Format: in vivo, BALB/c mice
- DETAILS: BALB/c, mouse, plasma; mice, PO 30 mg/kg
MEASUREMENT_TYPE: AUC(0-t) (µM·h)

>>> meas_value("O=C(N[C@@H]1CCCC[C@H]1N1Cc2ccc(-c3nnc(C(F)F)o3)cc2S1(=O)=O)C(F)F [Compound 2]")
182
>>> meas_value("CC(F)(F)C(=O)N[C@@H]1CCCC[C@H]1N1Cc2ccc(-c3nnc(C(F)F)o3)cc2S1(=O)=O [Compound 1]")
73.1

* * *

- TEST_METHOD_NOTES: Pharmacokinetic test in mice (IV and PO)
- Format: in vivo, BALB/c mice
- DETAILS: BALB/c, mouse, plasma; mice, IV 2 mg/kg
Reported AUC(0-inf) values are given for each entry in this list.
MEASUREMENT_TYPE: AUC(0-inf) (µM·h)

>>> meas_value("CC(F)(F)C(=O)N[C@@H]1CCCC[C@H]1N1Cc2ccc(-c3nnc(C(F)F)o3)cc2S1(=O)=O")
9.88
>>> meas_value("O=C(N[C@H]1[C@H](N2Cc3ccc(-c4nnc(C(F)F)o4)cc3S2(=O)=O)CCCC1(F)F)C(F)F")
15.4
>>> meas_value("O=S1(=O)c2cc(-c3nnc(C(F)F)o3)ccc2CN1C(c1ccccn1)[C@H](O)c1ccccn1 (stereo partly shown)")
8.78
>>> meas_value("O=C(N[C@@H]1CCCC[C@H]1N1Cc2ccc(-c3nnc(C(F)F)o3)cc2S1(=O)=O)C(F)F")
12.6

* * *

- TEST_METHOD_NOTES: Phase I metabolic stability in rat liver microsomes (RLMs)
- Type: in vitro ADME, Sprague-Dawley rats
- DETAILS: RLM, buffer instead of NADPH regeneration system, 60 min
MEASUREMENT_TYPE: Remaining rate (NCF = 60 min) (%)

>>> meas_value("O=S1(=O)c2cc(-c3nnc(C(F)F)o3)ccc2CN1C(c1ccccn1)[C@H](O)c1ccccn1 (stereo partly shown)")
88.49
>>> meas_value("O=C(N[C@@H]1CCCC[C@H]1N1Cc2ccc(-c3nnc(C(F)F)o3)cc2S1(=O)=O)C(F)F")
93.0
>>> meas_value("CC(F)(F)C(=O)N[C@@H]1CCCC[C@H]1N1Cc2ccc(-c3nnc(C(F)F)o3)cc2S1(=O)=O")
100.2
>>> meas_value("O=C(N[C@H]1[C@H](N2Cc3ccc(-c4nnc(C(F)F)o4)cc3S2(=O)=O)CCCC1(F)F)C(F)F")
88.24

* * *

- TEST_METHOD_NOTES: Pharmacokinetic test in mice (IV and PO)
- Assay type: in vivo, BALB/c mice
- DETAILS: BALB/c, mouse, plasma; mice, PO 100 mg/kg; read-out: MRT(0-∞)
- Protocol: In this example, the pharmacokinetic behavior of the compounds after intravenous injection (IV) and intragastric (PO) administration in BALB/c mice was tested. On the day of administration, mice were weighed for actual body weight and the administration volume was calculated. […] Plasma concentrations were determined by a LC-MS/MS method. […] The relevant pharmacokinetic parameters were calculated by a linear logarithmic trapezoid method.
# reported MRT inf; entries follow
MEASUREMENT_TYPE: MRT inf

>>> meas_value("O=C(N[C@@H]1CCCC[C@H]1N1Cc2ccc(-c3nnc(C(F)F)o3)cc2S1(=O)=O)C(F)F [Compound 2]")
"4.33 h"
>>> meas_value("CC(F)(F)C(=O)N[C@@H]1CCCC[C@H]1N1Cc2ccc(-c3nnc(C(F)F)o3)cc2S1(=O)=O [Compound 1]")
"3.71 h"

* * *

- TEST_METHOD_NOTES: Pharmacokinetic test in mice (IV and PO)
- Assay type: in vivo, BALB/c mice
- DETAILS: BALB/c, mouse, plasma; mice, PO 100 mg/kg
Reported values of Tmax for individual entries
MEASUREMENT_TYPE: Tmax

>>> meas_value("O=C(N[C@@H]1CCCC[C@H]1N1Cc2ccc(-c3nnc(C(F)F)o3)cc2S1(=O)=O)C(F)F [Compound 2]")
"1.33 h"
>>> meas_value("CC(F)(F)C(=O)N[C@@H]1CCCC[C@H]1N1Cc2ccc(-c3nnc(C(F)F)o3)cc2S1(=O)=O [Compound 1]")
"1.5 h"

* * *

- TEST_METHOD_NOTES: Brain-to-blood drug concentration ratio of mice
- Format: in vivo
- DETAILS: mouse, plasma, 2 mg/kg IV, 1 h, read-out: Blood drug concentration
Attribute: concentration at 1 h
MEASUREMENT_TYPE: concentration at 1 h (ng/mL)

>>> meas_value("CC(F)(F)C(=O)N[C@@H]1CCCC[C@H]1N1Cc2ccc(-c3nnc(C(F)F)o3)cc2S1(=O)=O [Compound 1]")
986
>>> meas_value("O=C(N[C@@H]1CCCC[C@H]1N1Cc2ccc(-c3nnc(C(F)F)o3)cc2S1(=O)=O)C(F)F [Compound 2]")
1090

* * *

- TEST_METHOD_NOTES: Pharmacokinetic test in mice (IV and PO)
- Assay type: in vivo, BALB/c mice
- DETAILS: BALB/c, mouse, plasma; mice, PO 10 mg/kg; read-out: MRT(0-∞)
MEASUREMENT_TYPE: MRT inf (h)

>>> meas_value("O=S1(=O)c2cc(-c3nnc(C(F)F)o3)ccc2CN1C(c1ccccn1)[C@H](O)c1ccccn1 (stereo partly shown) [Compound 83]")
4.57
>>> meas_value("O=C(N[C@@H]1CCCC[C@H]1N1Cc2ccc(-c3nnc(C(F)F)o3)cc2S1(=O)=O)C(F)F [Compound 2]")
4.5
>>> meas_value("CC(F)(F)C(=O)N[C@@H]1CCCC[C@H]1N1Cc2ccc(-c3nnc(C(F)F)o3)cc2S1(=O)=O [Compound 1]")
3.35
>>> meas_value("O=C(N[C@H]1[C@H](N2Cc3ccc(-c4nnc(C(F)F)o4)cc3S2(=O)=O)CCCC1(F)F)C(F)F [Compound 61]")
5.3

* * *

- TEST_METHOD_NOTES: Pharmacokinetic test in mice (IV and PO)
- Assay type: in vivo, BALB/c mice
- DETAILS: BALB/c, mouse, plasma; mice, IV 2 mg/kg; read-out: MRT(0-∞)
MEASUREMENT_TYPE: MRT inf (h)

>>> meas_value("O=C(N[C@@H]1CCCC[C@H]1N1Cc2ccc(-c3nnc(C(F)F)o3)cc2S1(=O)=O)C(F)F")
2.35
>>> meas_value("O=C(N[C@H]1[C@H](N2Cc3ccc(-c4nnc(C(F)F)o4)cc3S2(=O)=O)CCCC1(F)F)C(F)F")
4.38
>>> meas_value("CC(F)(F)C(=O)N[C@@H]1CCCC[C@H]1N1Cc2ccc(-c3nnc(C(F)F)o3)cc2S1(=O)=O")
2.19
>>> meas_value("O=S1(=O)c2cc(-c3nnc(C(F)F)o3)ccc2CN1C(c1ccccn1)[C@H](O)c1ccccn1 (stereo partly shown)")
2.06

* * *

- TEST_METHOD_NOTES: Pharmacokinetic test in mice (IV and PO)
- Format: in vivo, BALB/c mice
- DETAILS: BALB/c, mouse, plasma; mice, PO 10 mg/kg
The reader will find reported AUC(0-inf) values listed item by item below.
MEASUREMENT_TYPE: AUC(0-inf)

>>> meas_value("O=S1(=O)c2cc(-c3nnc(C(F)F)o3)ccc2CN1C(c1ccccn1)[C@H](O)c1ccccn1 (stereo partly shown)")
"63.7 µM·h"
>>> meas_value("O=C(N[C@H]1[C@H](N2Cc3ccc(-c4nnc(C(F)F)o4)cc3S2(=O)=O)CCCC1(F)F)C(F)F")
"73.4 µM·h"
>>> meas_value("CC(F)(F)C(=O)N[C@@H]1CCCC[C@H]1N1Cc2ccc(-c3nnc(C(F)F)o3)cc2S1(=O)=O")
"45.2 µM·h"
>>> meas_value("O=C(N[C@@H]1CCCC[C@H]1N1Cc2ccc(-c3nnc(C(F)F)o3)cc2S1(=O)=O)C(F)F")
"77.8 µM·h"

* * *

- TEST_METHOD_NOTES: Pharmacokinetic test in mice (IV and PO)
- Assay type: in vivo, BALB/c mice
- DETAILS: mice, IV 2 mg/kg
MEASUREMENT_TYPE: t½z (h)

>>> meas_value("O=C(N[C@H]1[C@H](N2Cc3ccc(-c4nnc(C(F)F)o4)cc3S2(=O)=O)CCCC1(F)F)C(F)F")
3.12
>>> meas_value("O=C(N[C@@H]1CCCC[C@H]1N1Cc2ccc(-c3nnc(C(F)F)o3)cc2S1(=O)=O)C(F)F")
1.01
>>> meas_value("O=S1(=O)c2cc(-c3nnc(C(F)F)o3)ccc2CN1C(c1ccccn1)[C@H](O)c1ccccn1 (stereo partly shown)")
1.493
>>> meas_value("CC(F)(F)C(=O)N[C@@H]1CCCC[C@H]1N1Cc2ccc(-c3nnc(C(F)F)o3)cc2S1(=O)=O")
1.062

* * *

Measured Remaining rate (T = 60 min), listed per entry for reference.
- TEST_METHOD_NOTES: Phase I metabolic stability in human liver microsomes (HLMs)
- Assay type: in vitro ADME, humans
- DETAILS: HLM, with NADPH, 60 min
MEASUREMENT_TYPE: Remaining rate (T = 60 min)

>>> meas_value("O=C(N[C@H]1[C@H](N2Cc3ccc(-c4nnc(C(F)F)o4)cc3S2(=O)=O)CCCC1(F)F)C(F)F")
"85.62%"
>>> meas_value("CC(F)(F)C(=O)N[C@@H]1CCCC[C@H]1N1Cc2ccc(-c3nnc(C(F)F)o3)cc2S1(=O)=O")
"79.0%"
>>> meas_value("O=S1(=O)c2cc(-c3nnc(C(F)F)o3)ccc2CN1C(c1ccccn1)[C@H](O)c1ccccn1 (stereo partly shown)")
"82.70%"
>>> meas_value("O=C(N[C@@H]1CCCC[C@H]1N1Cc2ccc(-c3nnc(C(F)F)o3)cc2S1(=O)=O)C(F)F")
"86.1%"
